target: BRSK1 (human) (UniProt Q8TDC3); assay: KINOMEscan competition binding; conditions: compound 10.0 µM
Sequence (Q8TDC3 whole entry, looked up): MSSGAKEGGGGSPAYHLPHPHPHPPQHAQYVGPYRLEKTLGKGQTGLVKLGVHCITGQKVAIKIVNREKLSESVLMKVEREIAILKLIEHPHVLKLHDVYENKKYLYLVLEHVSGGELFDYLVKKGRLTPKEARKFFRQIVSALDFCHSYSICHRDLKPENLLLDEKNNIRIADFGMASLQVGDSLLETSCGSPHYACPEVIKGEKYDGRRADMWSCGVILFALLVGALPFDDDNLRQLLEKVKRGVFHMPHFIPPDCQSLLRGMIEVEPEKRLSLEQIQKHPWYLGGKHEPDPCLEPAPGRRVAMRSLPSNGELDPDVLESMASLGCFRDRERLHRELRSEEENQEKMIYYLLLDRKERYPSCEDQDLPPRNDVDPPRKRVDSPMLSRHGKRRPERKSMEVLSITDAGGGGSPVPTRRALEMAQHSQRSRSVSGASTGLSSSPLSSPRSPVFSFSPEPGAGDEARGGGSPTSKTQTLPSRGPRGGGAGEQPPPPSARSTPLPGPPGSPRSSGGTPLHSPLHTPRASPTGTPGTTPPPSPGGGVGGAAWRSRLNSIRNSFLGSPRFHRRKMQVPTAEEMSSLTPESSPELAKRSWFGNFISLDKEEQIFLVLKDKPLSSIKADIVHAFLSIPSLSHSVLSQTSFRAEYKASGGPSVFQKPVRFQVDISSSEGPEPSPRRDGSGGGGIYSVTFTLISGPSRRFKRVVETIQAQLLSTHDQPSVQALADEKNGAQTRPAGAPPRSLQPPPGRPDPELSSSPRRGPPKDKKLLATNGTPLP
Reported property: kinase still bound, per cent of control (%)
Numeric answer only, unit % assumed.

> print(dat)
                                        mol                        reported.property  observed
1  CN(C)C/C=C/C(=O)Nc1cccc(Nc2ncc3c(n2)N(C)c2ccccc2C(=O)N3C)c1  kinase still bound, per cent of control        14

## Task kinase still bound, per cent of control lookup needed for "CCOc1cc2ncc(C#N)c(Nc3ccc(OCc4ccccn4)c(Cl)c3)c2cc1NC(=O)/C=C/CN(C)C" , thanks.
## Result 95

## Task // kinase still bound, per cent of control lookup, key: "Nc1ccc(-c2ccc3ncc4ccc(=O)n(-c5cccc(C(F)(F)F)c5)c4c3c2)cn1"
## Result 88

## Task Can you share its kinase still bound, per cent of control? I mean this molecule: "C[C@@H](Oc1cc(-n2cnc3ccc(CN4CCN(C)CC4)cc32)sc1C(N)=O)c1ccccc1C(F)(F)F"
## Result 42

## Task Look up kinase still bound, per cent of control for this molecule: "CCCS(=O)(=O)Nc1ccc(F)c(C(=O)c2c[nH]c3ncc(-c4ccc(Cl)cc4)cc23)c1F"
## Result 100

## Task Which kinase still bound, per cent of control is listed for "C=CC(=O)Nc1cccc(Oc2nc(Nc3ccc(N4CCN(C)CC4)cc3OC)ncc2Cl)c1" ?
## Result 100

## Task I'd like to know its kinase still bound, per cent of control. The molecule in question is "C=CC(=O)Nc1cccc(Nc2nc(N[C@H]3CC[C@H](N(C)C)CC3)nc3c2ncn3C(C)C)c1"
## Result 88

---

target: RPS6KA6 KD2 (human); assay: KINOMEscan competition binding; conditions: compound 10.0 µM
Below is a list of entries, each paired with its recorded kinase still bound, per cent of control value.
All answers are understood in %, so give the number only.

For orientation, consider the following solved cases.
> print(dat)
                                   compound  observed
1  CCOc1cc2ncc(C#N)c(Nc3ccc(OCc4ccccn4)c(Cl)c3)c2cc1NC(=O)/C=C/CN(C)C        97
2   OCCCNc1cc(-c2ccnc(Nc3cccc(Cl)c3)n2)ccn1       100
3  C[C@@H](Oc1cc(-n2cnc3ccc(CN4CCN(C)CC4)cc32)sc1C(N)=O)c1ccccc1C(F)(F)F        73

## Task Which kinase still bound, per cent of control reading was recorded for the compound "CCN1CCN(Cc2ccc(Nc3ncc4c(n3)N(C)c3ccccc3C(=O)N4C)cc2C(F)(F)F)CC1" ?
## Result 16

## Task Consider the compound shown here: "CC[C@@H]1C(=O)N(C)c2cnc(Nc3ccc(C(=O)NC4CCN(C)CC4)cc3OC)nc2N1C1CCCC1" What is its recorded kinase still bound, per cent of control?
## Result 8.3

## Task Requested field: kinase still bound, per cent of control. Item: "Cc1ccc2nc(NCCN)c3ncc(C)n3c2c1"
## Result 40

## Task So what does the record say about kinase still bound, per cent of control for "CCC(=O)N1CCN(c2ccc(-n3c(=O)ccc4cnc5ccc(-c6cnc7ccccc7c6)cc5c43)cc2C(F)(F)F)CC1" ?
## Result 86

## Task Look up kinase still bound, per cent of control: "COc1cc(N2CCN(C)CC2)ccc1Nc1nc(N)c(C(=O)c2c(Cl)cccc2Cl)s1"
## Result 28

---

target: PRKD1 (human) (UniProt Q15139); test: KINOMEscan competition binding; settings: compound 10.0 µM
Sequence (Q15139 whole entry, looked up): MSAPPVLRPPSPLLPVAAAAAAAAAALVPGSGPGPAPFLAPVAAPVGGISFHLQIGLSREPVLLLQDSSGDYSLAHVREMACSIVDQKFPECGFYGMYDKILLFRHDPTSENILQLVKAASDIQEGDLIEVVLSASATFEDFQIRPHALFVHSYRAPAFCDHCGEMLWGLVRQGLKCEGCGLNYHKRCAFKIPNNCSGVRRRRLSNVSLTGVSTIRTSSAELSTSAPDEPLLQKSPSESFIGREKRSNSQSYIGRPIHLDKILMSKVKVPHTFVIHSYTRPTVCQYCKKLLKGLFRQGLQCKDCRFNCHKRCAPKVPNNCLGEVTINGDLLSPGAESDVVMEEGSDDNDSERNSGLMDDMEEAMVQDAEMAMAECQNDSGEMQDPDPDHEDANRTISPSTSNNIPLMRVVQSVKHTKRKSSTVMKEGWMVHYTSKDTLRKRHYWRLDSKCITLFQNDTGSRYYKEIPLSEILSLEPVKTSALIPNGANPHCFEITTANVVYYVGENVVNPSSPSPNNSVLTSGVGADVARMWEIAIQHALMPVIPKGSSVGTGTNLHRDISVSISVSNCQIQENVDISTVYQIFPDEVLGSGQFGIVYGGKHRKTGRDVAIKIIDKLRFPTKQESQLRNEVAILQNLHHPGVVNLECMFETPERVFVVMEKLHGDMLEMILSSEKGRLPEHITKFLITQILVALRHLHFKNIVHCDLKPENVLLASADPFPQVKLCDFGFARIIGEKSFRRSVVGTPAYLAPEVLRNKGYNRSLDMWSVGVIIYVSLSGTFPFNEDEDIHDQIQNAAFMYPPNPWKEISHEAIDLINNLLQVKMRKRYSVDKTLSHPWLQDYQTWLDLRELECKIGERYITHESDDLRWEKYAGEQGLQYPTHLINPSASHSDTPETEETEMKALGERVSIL
Measured kinase still bound, per cent of control values are reported for all entries that follow.
The response must be a number in % with no trailing unit.

Examples with answers:
> print(dat)
                                   molecule  observed
1  COc1cc(C(=O)NC2CCN(C)CC2)ccc1Nc1ncc2c(n1)N(C1CCCC1)CCC(=O)N2C(C)C       100
2  CCC(=O)N1CCN(c2ccc(-n3c(=O)ccc4cnc5ccc(-c6cnc7ccccc7c6)cc5c43)cc2C(F)(F)F)CC1        99
3  C=CC(=O)Nc1cc(NC(=O)c2ccc(C)c(NC(=O)c3ccno3)c2)cc(C(F)(F)F)c1       100

## Task For the molecule shown here, "COc1cc(N2CCN(C)CC2)ccc1Nc1nc(N)c(C(=O)c2c(Cl)cccc2Cl)s1" , give the reported kinase still bound, per cent of control.
## Result 44

## Task Entry under review: "Cc1ccc(C(=O)Nc2cccc(C(F)(F)F)c2)cc1Nc1cncc(C(N)=O)c1" . Reported kinase still bound, per cent of control?
## Result 100

## Task Look up kinase still bound, per cent of control: "C=CC(=O)Nc1cccc(Nc2nc(N[C@H]3CC[C@H](N(C)C)CC3)nc3c2ncn3C(C)C)c1"
## Result 100

---

molecular target: LIMK2 (human) (UniProt P53671); test: KINOMEscan competition binding; details: compound 10.0 µM
Sequence (P53671 whole entry, looked up): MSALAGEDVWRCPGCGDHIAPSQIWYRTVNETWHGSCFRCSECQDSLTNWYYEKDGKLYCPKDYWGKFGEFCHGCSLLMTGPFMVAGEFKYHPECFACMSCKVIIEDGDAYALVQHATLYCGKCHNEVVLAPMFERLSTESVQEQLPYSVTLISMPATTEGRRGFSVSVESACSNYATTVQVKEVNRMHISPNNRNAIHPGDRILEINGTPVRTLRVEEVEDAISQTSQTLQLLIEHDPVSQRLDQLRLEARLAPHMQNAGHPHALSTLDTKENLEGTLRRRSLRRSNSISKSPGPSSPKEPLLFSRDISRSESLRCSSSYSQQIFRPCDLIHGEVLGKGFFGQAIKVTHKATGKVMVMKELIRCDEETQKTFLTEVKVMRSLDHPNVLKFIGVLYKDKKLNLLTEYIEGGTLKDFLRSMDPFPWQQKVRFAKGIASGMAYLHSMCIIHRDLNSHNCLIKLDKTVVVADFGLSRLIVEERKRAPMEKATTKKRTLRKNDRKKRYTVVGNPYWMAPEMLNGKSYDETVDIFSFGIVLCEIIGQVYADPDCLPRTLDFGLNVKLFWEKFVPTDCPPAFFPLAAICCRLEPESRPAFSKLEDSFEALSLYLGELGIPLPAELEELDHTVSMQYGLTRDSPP
Reported property: kinase still bound, per cent of control (%)
Note: unit % is implicit; provide only the numeric part.

Below, 5 molecules whose answers are already recorded.
> print(dat)
                                   molecule                 target.of.assay  observed
1  Cn1c(=O)n(-c2ccc(C(C)(C)C#N)cc2)c2c3cc(-c4cnc5ccccc5c4)ccc3ncc21  LIMK2 (human) (UniProt P53671)       100
2  C=CC(=O)Nc1cccc(Nc2nc(N[C@H]3CC[C@H](N(C)C)CC3)nc3c2ncn3C(C)C)c1  LIMK2 (human) (UniProt P53671)       100
3  COc1cc(C(=O)NC2CCN(C)CC2)ccc1Nc1ncc2c(n1)N(C1CCCC1)C(C)CC(=O)N2C (centres undefined)  LIMK2 (human) (UniProt P53671)       100
4  C=CC(=O)Nc1cccc(Oc2nc(Nc3ccc(N4CCN(C)CC4)cc3OC)ncc2Cl)c1  LIMK2 (human) (UniProt P53671)       100
5  CCN1CCN(Cc2ccc(Nc3ncc4c(n3)N(C)c3ccccc3C(=O)N4C)cc2C(F)(F)F)CC1  LIMK2 (human) (UniProt P53671)        85

## Task Param item = "N#Cc1c(NC(=O)c2cccc3ccccc23)sc2c1CCCC2" ; retrieve measured kinase still bound, per cent of control.
## Result 100

## Task Look up kinase still bound, per cent of control for this molecule: "Cc1ccc(C(=O)Nc2cccc(C(F)(F)F)c2)cc1Nc1cncc(C(N)=O)c1"
## Result 100

## Task Quick one: kinase still bound, per cent of control of "C[C@@H](Oc1cc(-n2cnc3ccc(CN4CCN(C)CC4)cc32)sc1C(N)=O)c1ccccc1C(F)(F)F" ?
## Result 100

## Task # query: kinase still bound, per cent of control of entry "C=CC(=O)Nc1cc(NC(=O)c2ccc(C)c(NC(=O)c3ccno3)c2)cc(C(F)(F)F)c1"
## Result 96

## Task Requested read-out: kinase still bound, per cent of control. Entry: "CCC(=O)N1CCN(c2ccc(-n3c(=O)ccc4cnc5ccc(-c6cnc7ccccc7c6)cc5c43)cc2C(F)(F)F)CC1"
## Result 4.8

## Task kinase still bound, per cent of control for "Cc1ccc2nc(NCCN)c3ncc(C)n3c2c1" ?
## Result 100

## Task Reported kinase still bound, per cent of control for "CCOc1cc2ncc(C#N)c(Nc3ccc(OCc4ccccn4)c(Cl)c3)c2cc1NC(=O)/C=C/CN(C)C" : what is it?
## Result 100

## Task Dear colleague, I am looking for the recorded kinase still bound, per cent of control of the following molecule: "O=C(NOC[C@H](O)CO)c1ccc(F)c(F)c1Nc1ccc(I)cc1F"
## Result 100

## Task Looking for the measured kinase still bound, per cent of control of "CC[C@@H]1C(=O)N(C)c2cnc(Nc3ccc(C(=O)NC4CCN(C)CC4)cc3OC)nc2N1C1CCCC1" , can you help?
## Result 100

---

biological target: LATS2 (human) (UniProt Q9NRM7); test: KINOMEscan competition binding; settings: compound 10.0 µM
Sequence (Q9NRM7 whole entry, looked up): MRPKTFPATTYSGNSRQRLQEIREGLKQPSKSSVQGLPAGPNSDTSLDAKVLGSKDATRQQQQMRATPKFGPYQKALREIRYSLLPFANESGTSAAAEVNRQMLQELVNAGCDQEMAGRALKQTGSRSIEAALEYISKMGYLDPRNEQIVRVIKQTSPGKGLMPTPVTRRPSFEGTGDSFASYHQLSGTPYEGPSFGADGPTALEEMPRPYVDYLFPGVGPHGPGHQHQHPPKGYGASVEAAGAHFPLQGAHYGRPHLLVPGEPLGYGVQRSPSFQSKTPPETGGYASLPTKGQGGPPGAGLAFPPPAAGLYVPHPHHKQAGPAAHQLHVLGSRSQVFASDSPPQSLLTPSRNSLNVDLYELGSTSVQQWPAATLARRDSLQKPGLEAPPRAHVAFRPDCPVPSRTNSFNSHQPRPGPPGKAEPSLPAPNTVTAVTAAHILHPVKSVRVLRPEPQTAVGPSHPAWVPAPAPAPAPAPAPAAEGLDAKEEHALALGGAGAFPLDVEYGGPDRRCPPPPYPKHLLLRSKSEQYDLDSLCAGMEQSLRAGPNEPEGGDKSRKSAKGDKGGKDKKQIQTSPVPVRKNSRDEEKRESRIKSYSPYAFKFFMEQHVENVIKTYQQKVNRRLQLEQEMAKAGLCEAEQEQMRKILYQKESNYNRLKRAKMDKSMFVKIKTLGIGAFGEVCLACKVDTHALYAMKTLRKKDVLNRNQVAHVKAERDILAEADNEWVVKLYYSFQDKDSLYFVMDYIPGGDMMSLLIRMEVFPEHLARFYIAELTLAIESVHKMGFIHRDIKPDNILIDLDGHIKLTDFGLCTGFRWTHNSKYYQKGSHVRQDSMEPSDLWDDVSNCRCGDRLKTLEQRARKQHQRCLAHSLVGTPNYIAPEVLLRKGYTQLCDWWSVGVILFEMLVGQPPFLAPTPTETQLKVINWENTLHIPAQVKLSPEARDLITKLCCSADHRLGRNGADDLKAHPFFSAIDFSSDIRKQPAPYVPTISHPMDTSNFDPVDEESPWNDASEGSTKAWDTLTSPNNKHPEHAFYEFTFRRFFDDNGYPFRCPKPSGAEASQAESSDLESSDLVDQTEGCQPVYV
Reported property: kinase still bound, per cent of control

Take a look at these entries with their results.
> print(dat)
                                        mol  observed
1             Cc1ccc2nc(NCCN)c3ncc(C)n3c2c1      100%
2  Cn1c(=O)n(-c2ccc(C(C)(C)C#N)cc2)c2c3cc(-c4cnc5ccccc5c4)ccc3ncc21      100%
3  CCCS(=O)(=O)Nc1ccc(F)c(C(=O)c2c[nH]c3ncc(-c4ccc(Cl)cc4)cc23)c1F       75%
4  Nc1ccc(-c2ccc3ncc4ccc(=O)n(-c5cccc(C(F)(F)F)c5)c4c3c2)cn1      100%
5  C=CC(=O)Nc1cc(NC(=O)c2ccc(C)c(NC(=O)c3ccno3)c2)cc(C(F)(F)F)c1       88%

## Task Return reported kinase still bound, per cent of control; argument: "COc1cc(C(=O)NC2CCN(C)CC2)ccc1Nc1ncc2c(n1)N(C1CCCC1)CCC(=O)N2C(C)C"
## Result 100%

## Task Fill in: kinase still bound, per cent of control of "CCOc1cc2ncc(C#N)c(Nc3ccc(OCc4ccccn4)c(Cl)c3)c2cc1NC(=O)/C=C/CN(C)C" is ___
## Result 100%

## Task Entry "O=C(NOC[C@H](O)CO)c1ccc(F)c(F)c1Nc1ccc(I)cc1F" : reported kinase still bound, per cent of control = ?
## Result 74%

## Task Fill blank: measured kinase still bound, per cent of control of the molecule "O=C(O)c1ccc(Nc2ncc3c(n2)-c2ccc(Cl)cc2C(c2c(F)cccc2F)=NC3)cc1" is ____.
## Result 72%

## Task Returns the measured kinase still bound, per cent of control for the input molecule. Input: "Cc1ccc(C(=O)Nc2cccc(C(F)(F)F)c2)cc1Nc1cncc(C(N)=O)c1"
## Result 100%

## Task Quick check: kinase still bound, per cent of control of "OCCCNc1cc(-c2ccnc(Nc3cccc(Cl)c3)n2)ccn1" ?
## Result 100%
